molecular target: GSK3β (Homo sapiens)
Sequence (P49841 whole entry): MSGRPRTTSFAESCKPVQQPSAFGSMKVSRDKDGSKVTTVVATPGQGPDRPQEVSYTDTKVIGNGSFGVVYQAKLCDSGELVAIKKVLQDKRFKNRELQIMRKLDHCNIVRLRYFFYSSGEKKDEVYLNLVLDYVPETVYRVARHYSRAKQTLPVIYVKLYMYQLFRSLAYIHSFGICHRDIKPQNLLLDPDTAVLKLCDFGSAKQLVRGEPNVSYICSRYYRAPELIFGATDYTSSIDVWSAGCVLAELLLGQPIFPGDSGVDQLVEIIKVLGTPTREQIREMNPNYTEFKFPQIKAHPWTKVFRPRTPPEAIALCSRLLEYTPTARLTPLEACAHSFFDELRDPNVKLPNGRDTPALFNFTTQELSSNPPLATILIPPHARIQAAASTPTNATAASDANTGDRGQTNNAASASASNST
readout-name: IC50 (nM)
One number for each entry, in nM.

Reported IC50 (GSK3β (Homo sapiens)) for entry Nc1cccc(-c2cc3c(Oc4cccc(O)c4)ncnc3[nH]2)c1 is 410

---

target: GSK3α (Homo sapiens, UniProt P49840)
Sequence (P49840 2-483): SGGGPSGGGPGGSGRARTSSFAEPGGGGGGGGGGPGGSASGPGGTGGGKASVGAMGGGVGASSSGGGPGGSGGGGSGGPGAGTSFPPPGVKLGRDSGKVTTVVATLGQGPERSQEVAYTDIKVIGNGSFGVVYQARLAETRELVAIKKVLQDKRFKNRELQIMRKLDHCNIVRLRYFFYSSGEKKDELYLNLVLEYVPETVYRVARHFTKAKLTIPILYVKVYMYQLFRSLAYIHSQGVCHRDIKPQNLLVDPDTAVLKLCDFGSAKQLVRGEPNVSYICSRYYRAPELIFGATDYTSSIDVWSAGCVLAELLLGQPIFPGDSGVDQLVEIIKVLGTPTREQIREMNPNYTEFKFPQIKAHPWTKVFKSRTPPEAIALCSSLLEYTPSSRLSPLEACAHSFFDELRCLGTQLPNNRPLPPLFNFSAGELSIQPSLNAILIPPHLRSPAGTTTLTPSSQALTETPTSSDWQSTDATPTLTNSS
readout-name: IC50 (nM)
Numbers only, in nM.

Memo: Nc1cccc(-c2cc3c(Oc4cccc(O)c4)ncnc3[nH]2)c1 , reported IC50: 88
